Origin of the recorded values: patent US20060046966A1

system: HRV (17); test: Antirhinoviral H1-HeLa cell culture assay, HRV serotype 17; type: cell-based, human rhinovirus; settings: H1-HeLa cells, XTT
experimental-endpoint: EC50 (nM)
Give bare numbers, in nM.

Form field EC50, entry "CCOC(=O)/C=C/[C@H](C[C@@H]1CCNC1=O)NC(=O)[C@H](Cc1ccc(F)cc1)NC(=O)[C@@H](NC(=O)c1cc(C)on1)C(C)(C)C" : 20

* * *

Target: rhinovirus 3C protease from HRV serotype-14 (Human rhinovirus 14, UniProt P03303)
Construct: Recombinant rhinovirus 3C proteases; made in house
Sequence (P03303 1538-1719): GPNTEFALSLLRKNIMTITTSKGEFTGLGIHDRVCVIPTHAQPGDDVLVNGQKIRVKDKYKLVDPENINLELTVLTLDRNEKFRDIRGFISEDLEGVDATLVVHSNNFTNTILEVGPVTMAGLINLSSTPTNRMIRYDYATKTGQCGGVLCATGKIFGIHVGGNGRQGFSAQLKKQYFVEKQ
Test: Inhibition of rhinovirus 3C protease (FRET assay), serotype 14
Assay type: biochemical
Conditions: HRV serotype-14 3C protease; progress curves in enzyme start experiments; read-out: Protease Inhibition kobs/[I]
Experimental: Stock solutions (50 mM, in DMSO) of various compounds were prepared; dilutions were in the same solvent. […] RVP activity was measured in the fluorescence resonance energy transfer assay. […] In the uncleaved peptide, the EDANS fluorescence was quenched by the proximal DABCYL moiety. When the peptide was cleaved, the quenching was relieved, and activity was measured as an increase in fluorescence signal. […]
experimental-endpoint: kinact/KI

molecule	kinact/KI
Cc1cc(C(=O)N[C@H](C(=O)C[C@@H](Cc2ccc(F)cc2)C(=O)N[C@H](/C=C2\CCOC2=O)C[C@@H]2CCNC2=O)C(C)C)no1 [Compound B-3]	465000 M⁻¹ s⁻¹
CCOC(=O)/C=C/[C@H](CCC(N)=O)NC(=O)[C@H](Cc1ccccc1)NC(=O)[C@@H](NC(=O)OCc1ccccc1)C(C)C [Comparison Compound #3]	62500 M⁻¹ s⁻¹
CCOC(=O)/C=C/[C@H](C[C@@H]1CCCNC1=O)NC(=O)[C@H](Cc1ccccc1)NC(=O)[C@H](CC(C)C)NC(=O)OCc1ccccc1 [Compound A-26]	239000 M⁻¹ s⁻¹

Next molecule, kinact/KI to be filled in.
Tested system rhinovirus 3C protease from HRV serotype-14 (Human rhinovirus 14, UniProt P03303); kinact/KI recorded for CCOC(=O)/C=C/[C@H](CCC(N)=O)NC(=O)[C@H](Cc1ccccc1)NC(=O)[C@H](CC(C)C)NC(=O)c1cc(C)oc1C [Compound A-20] was 1020 M⁻¹ s⁻¹

* * *

system: HRV (10); test: Antirhinoviral H1-HeLa cell culture assay, HRV serotype 10; format: cell-based, human rhinovirus; conditions: Human rhinovirus sp., H1-HeLa, H1-HeLa cells, XTT
experimental-endpoint: EC50 (µM)
Numbers only, in µM.

Worked cases, EC50 given:
compound	readout-value
CCOC(=O)/C=C/[C@H](CCC(N)=O)NC(=O)[C@H](Cc1ccc(C)cc1)NC(=O)[C@@H](NC(=O)C1SCCS1)C(C)(C)C	2.7
CCOC(=O)/C=C/[C@H](CCC(N)=O)NC(=O)[C@H](Cc1ccc(C)cc1)NC(=O)[C@@H](NC(=O)c1ccc[nH]1)C(C)(C)C	4.5
CCOC(=O)/C=C/[C@H](CCC(N)=O)NC(=O)[C@H](Cc1ccccc1)NC(=O)[C@H](CC(C)C)NC(=O)OCc1ccccc1 [Comparison Compound #2, reference compound]	0.6
CCOC(=O)/C=C/[C@H](CCC(N)=O)NC(=O)[C@@H](CC(=O)[C@@H](NC(=O)c1cc(C)on1)C(C)C)Cc1ccc(F)cc1	0.4

Take each entry in turn and give its EC50.
1. CCOC(=O)/C=C/[C@H](C[C@@H]1CCNC1=O)NC(=O)[C@@H](CC(=O)[C@@H](NC(=O)c1cc(C)on1)C(C)C)Cc1ccc(F)cc1
2. CCOC(=O)/C=C/[C@H](C[C@@H]1CCNC1=O)NC(=O)[C@H](Cc1ccc(F)cc1)OC(=O)[C@@H](NC(=O)c1cc(C)on1)C(C)C
3. CCOC(=O)/C=C/[C@H](CCC(N)=O)NC(=O)[C@H](Cc1ccc(F)cc1)NC(=O)[C@@H](NC(=O)C1SCCS1)C(C)(C)C

Completion:
[0.02, 0.02, 3.3]
